Value source: patent US8372840B2

biological target: hKv1.5 (Homo sapiens, UniProt P22460); test: Kv1.5 Autopatch Electrophysiology (whole cell patch-clamp); type: cell-based; conditions: compound 1 μM, step to 0 mV for 1000 ms, total charge, room temperature (22-24° C.), read-out: hKv1.5 % inh.
Sequence (P22460 whole entry): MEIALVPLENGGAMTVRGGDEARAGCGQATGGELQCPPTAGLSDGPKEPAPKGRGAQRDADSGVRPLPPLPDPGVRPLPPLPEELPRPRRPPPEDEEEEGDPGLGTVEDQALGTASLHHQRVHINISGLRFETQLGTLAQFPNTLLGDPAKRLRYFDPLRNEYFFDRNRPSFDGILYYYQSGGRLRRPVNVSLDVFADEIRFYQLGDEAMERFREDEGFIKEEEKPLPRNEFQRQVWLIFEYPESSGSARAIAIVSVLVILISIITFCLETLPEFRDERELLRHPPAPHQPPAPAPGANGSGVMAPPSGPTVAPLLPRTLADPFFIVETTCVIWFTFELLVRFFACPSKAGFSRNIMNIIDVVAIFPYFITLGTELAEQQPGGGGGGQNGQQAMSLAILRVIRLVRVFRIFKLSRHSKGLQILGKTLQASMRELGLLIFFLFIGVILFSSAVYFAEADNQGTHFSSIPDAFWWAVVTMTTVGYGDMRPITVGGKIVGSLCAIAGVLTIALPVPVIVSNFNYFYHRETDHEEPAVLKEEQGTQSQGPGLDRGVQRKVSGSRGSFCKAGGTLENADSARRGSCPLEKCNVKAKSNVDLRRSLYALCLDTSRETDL
measure_name: inhibition at 1 µM (%)

As a guide, the following entries are already answered.
O=S(=O)(c1ccccc1)N(Cc1ccccc1)c1cccc(N2CCN(c3ccccc3)CC2)c1 [Example 5] | 91
Cn1cc(S(=O)(=O)N(Cc2ccc(Cl)cc2)c2cccc(N3CCCC3=O)c2)cn1 [Example 28] | 49
CN1CCOc2cc(S(=O)(=O)N(Cc3ccccc3)c3cccc(N4CCOCC4)c3)ccc21 [Example 21] | 72

P: Cn1ccc(S(=O)(=O)N(Cc2ccc(Cl)cc2)c2cccc(OCC(=O)NC3CCC3)c2)n1 [Example 50]
Q: Cc1nc(S(=O)(=O)N(Cc2ccccc2)c2cccc(N3CCOCC3)c2)cn1C [Example 19]
Query: From the recorded data, which exceeds the other in inhibition at 1 µM: P or Q ? Please reply using the label of the selected record.
Response: P

* * *

biological target: human Kv1.3 (Homo sapiens); construct: expressed in transfected cells; host or cells: stably transfected cells grown in medium for CHO cells; assay: Kv1.3 Autopatch Electrophysiology (whole cell patch-clamp, stably transfected CHO cells); type: cell-based; conditions: CHO, compound 1 μM, step to +30 mV for 500 ms, inhibition of total charge relative to control, room temperature, read-out: hKv1.3 % inh.
Sequence (P22001 whole entry): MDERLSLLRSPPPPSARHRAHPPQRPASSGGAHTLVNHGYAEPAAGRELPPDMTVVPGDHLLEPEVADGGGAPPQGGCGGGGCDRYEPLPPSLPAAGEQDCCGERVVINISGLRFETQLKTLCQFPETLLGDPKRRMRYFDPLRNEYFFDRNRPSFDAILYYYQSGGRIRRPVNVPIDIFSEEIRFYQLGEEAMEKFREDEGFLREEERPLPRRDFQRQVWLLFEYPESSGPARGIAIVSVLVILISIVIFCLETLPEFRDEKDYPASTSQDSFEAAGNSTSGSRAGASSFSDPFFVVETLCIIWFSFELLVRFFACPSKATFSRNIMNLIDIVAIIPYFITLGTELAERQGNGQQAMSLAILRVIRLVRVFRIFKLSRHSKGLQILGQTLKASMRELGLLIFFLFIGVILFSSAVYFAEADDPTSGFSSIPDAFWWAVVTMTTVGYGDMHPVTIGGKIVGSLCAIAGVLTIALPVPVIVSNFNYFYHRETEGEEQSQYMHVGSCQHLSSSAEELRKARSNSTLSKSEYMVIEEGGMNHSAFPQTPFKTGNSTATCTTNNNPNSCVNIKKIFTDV
measure_name: inhibition at 1 µM (%)

Cn1ccc(S(=O)(=O)N(Cc2ccc(Cl)cc2)c2cccc(OCC(=O)NC3CC3)c2)n1 [Example 51] | 83
Cn1ccc(S(=O)(=O)N(Cc2ccc(Cl)cc2)c2cccc(OCc3ccccn3)c2)n1 [Example 6] | 91
O=C(Cc1ccccc1)Nc1cccc(N(Cc2ccccc2)S(=O)(=O)c2ccccc2)c1 [Example 11] | 86

* * *

target: hKv1.5 (Homo sapiens, UniProt P22460); assay: Kv1.5 Autopatch Electrophysiology (whole cell patch-clamp); assay type: cell-based; details: compound 1 μM, step to 0 mV for 1000 ms, total charge, room temperature (22-24° C.), read-out: hKv1.5 % inh.
measure_name: inhibition at 1 µM (%)

As a guide, the following entries are already answered.
O=C1COc2ccc(S(=O)(=O)N(Cc3ccccc3)c3cccc(N4CCCC4=O)c3)cc2N1 | 45
O=C(Cc1ccccc1)Nc1cccc(N(Cc2ccccc2)S(=O)(=O)c2ccccc2)c1 | 77
CN1CCOc2cc(S(=O)(=O)N(Cc3ccc(Cl)cc3)c3cccc(N4CCCC4=O)c3)ccc21 | 84

I: Cn1cc(S(=O)(=O)N(Cc2ccc(Cl)cc2)c2cccc(N3CCOCC3)c2)cn1
II: O=C1NCCN1c1cccc(N(Cc2ccc(Cl)cc2)S(=O)(=O)c2ccccc2)c1
Query: // task: argmin of inhibition at 1 µM over [ I , II ] Please reply using the label of the selected record.
Response: I
(I: 58%, II: 91%)

A: O=C1COc2ccc(S(=O)(=O)N(Cc3ccc(Cl)cc3)c3cccc(N4CCOCC4)c3)cc2N1
B: Cn1nccc1S(=O)(=O)N(Cc1ccc(Cl)cc1)c1cccc(N2CCOCC2)c1
C: Cn1ccc(S(=O)(=O)N(Cc2ccc(Cl)cc2)c2cccc(OCC(=O)Nc3ccccn3)c2)n1
Query: Order the records by inhibition at 1 µM, with each subsequent value no larger than the one before. Respond with an ordered listing of the labels, as requested.
Response: C, A, B

a: Cn1ccc(S(=O)(=O)N(Cc2ccc(Cl)cc2)c2cccc(OCC(=O)NC3CC3)c2)n1
b: Cc1nc(S(=O)(=O)N(Cc2ccc(Cl)cc2)c2cccc(N3CCCC3=O)c2)cn1C
Query: // task: argmin of inhibition at 1 µM over [ a , b ] Please reply using the label of the selected record.
Response: b

* * *

target: UniProtKB P22460; assay: Kv1.5 Autopatch Electrophysiology (whole cell patch-clamp); type: cell-based; conditions: compound 1 μM, step to 0 mV for 1000 ms, total charge, room temperature (22-24° C.), read-out: hKv1.5 % inh.
measure_name: inhibition at 1 µM (%)

P: COCC(=O)Nc1cccc(N(Cc2ccccc2)S(=O)(=O)c2ccccc2)c1 [Example 12]
Q: CNC(=O)COc1cccc(N(Cc2ccc(Cl)cc2)S(=O)(=O)c2ccn(C)n2)c1 [Example 7]
Query: // task: argmin of inhibition at 1 µM over [ P , Q ] Please reply using the label of the selected record.
Response: P
(P: 58%, Q: 93%)

1: N#Cc1cccc(S(=O)(=O)N(Cc2ccccc2)c2cccc(N3CCOCC3)c2)c1 [Example 20]
2: O=S(=O)(c1ccccc1)N(Cc1ccccc1)c1cccc(N2CCOCC2)c1 [Example 2]
Query: // task: argmin of inhibition at 1 µM over [ 1 , 2 ] Please reply using the label of the selected record.
Response: 2
(2: 62%, 1: 90%)

* * *

target: UniProt P22460; experiment: Kv1.5 Autopatch Electrophysiology (whole cell patch-clamp); type: cell-based; details: compound 1 μM, step to 0 mV for 1000 ms, total charge, room temperature (22-24° C.), read-out: hKv1.5 % inh.
measure_name: inhibition at 1 µM (%)

CN1CCOc2cc(S(=O)(=O)N(Cc3ccc(Cl)cc3)c3cccc(N4CCOCC4)c3)ccc21 [Example 32] | 64
O=C1NCCN1c1cccc(N(Cc2ccccc2)S(=O)(=O)c2ccccc2)c1 [Example 1] | 66
Cn1cncc1C(=O)Nc1cccc(N(Cc2ccccc2)S(=O)(=O)c2ccccc2)c1 [Example 3] | 73
Cn1ccc(S(=O)(=O)N(Cc2ccc(Cl)cc2)c2cccc(OCc3ccccn3)c2)n1 [Example 6] | 72
O=S(=O)(c1ccccc1)N(Cc1ccccc1)c1cccc(N2CCNC(c3ccccc3)C2)c1 (centres unmarked) [Example 14] | 77
